Each recorded value in this set is attributed to patent US10414774B2.

- target_of_assay: Human CYP8B1 (Homo sapiens)
- Sequence (Q9UNU6 whole entry): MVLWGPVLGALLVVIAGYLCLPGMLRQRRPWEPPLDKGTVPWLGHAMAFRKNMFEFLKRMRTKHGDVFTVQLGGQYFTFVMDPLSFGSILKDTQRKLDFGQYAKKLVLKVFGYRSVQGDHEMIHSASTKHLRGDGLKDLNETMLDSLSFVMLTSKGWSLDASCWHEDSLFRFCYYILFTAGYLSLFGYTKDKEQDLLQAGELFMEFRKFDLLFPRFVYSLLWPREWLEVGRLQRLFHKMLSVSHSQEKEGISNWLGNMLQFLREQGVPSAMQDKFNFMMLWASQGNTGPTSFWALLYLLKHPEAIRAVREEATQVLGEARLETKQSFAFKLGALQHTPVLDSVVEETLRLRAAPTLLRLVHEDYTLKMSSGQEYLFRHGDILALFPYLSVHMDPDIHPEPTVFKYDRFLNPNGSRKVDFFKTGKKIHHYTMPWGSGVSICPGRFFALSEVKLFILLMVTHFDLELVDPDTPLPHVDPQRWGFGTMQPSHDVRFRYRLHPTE
- assay_info: Human CYP8B1 Liver Microsome Assay
- experimental_conditions: Human CYP8B1 IC50, human liver microsomes; substrate 7a-hydroxy-4-cholesten-3-one, NADPH; RapidFire MS detection of 7α,12α-dihydroxy-4-cholesten-3-one
pIC50: −log10 of the molar value.
Label rule, in plain words: pIC50 of 8 and up is criterion met, under 8 is criterion not met.

Sample answers from the record:
1) CC1CN(c2c(C#N)cnc3ccc(F)cc23)CCC1C(=O)N1CCn2c(nnc2C(F)(F)F)C1 (centres unmarked) [Example 117]; criterion met
2) COC(=O)c1nc2ccc(Cl)cc2c(N2CC[C@H](C(=O)N3CCn4c(nnc4C(F)(F)F)C3)[C@H](C)C2)c1C#N [Example 59]; criterion not met
3) N#Cc1cnc2ccc(Cl)cc2c1N1CC[C@]2(C(=O)N3CCn4c(nnc4C(F)(F)F)C3)C[C@@H]2C1 (single isomer, unassigned) [Example 81a]; criterion not met

Could you now consider this next compound?
Ask: Can N#Cc1cnc2ccc(Cl)cc2c1N1CCN(C(=O)N2CCn3c(nnc3C(F)(F)F)C2)CC1 [Example 129] be said to have pIC50 at or above 8?
Result: criterion not met
